The reported numbers originate from patent US20160297884A1.

Target: T1, Human BCMA (human, UniProt Q02223 1-54, limits assumed)
T1 construct: Soluble analyte in SPR; construct not described; also called huBCMA; B-cell maturation antigen
T1 sequence (looked up): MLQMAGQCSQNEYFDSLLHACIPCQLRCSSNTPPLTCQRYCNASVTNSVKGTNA
Test: SPR, IgG immobilised, 37 C
Give measured kon for each item. Keep answers brief.
One number for each entry, in M⁻¹ s⁻¹.

[[record]]
binder = "L3.PY/L1.AH/H3.AQ (antibody, V domains shown, IgG) VH: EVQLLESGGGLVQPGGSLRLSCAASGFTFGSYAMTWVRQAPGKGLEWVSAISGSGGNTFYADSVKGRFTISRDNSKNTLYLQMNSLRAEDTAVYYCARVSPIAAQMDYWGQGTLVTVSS VL: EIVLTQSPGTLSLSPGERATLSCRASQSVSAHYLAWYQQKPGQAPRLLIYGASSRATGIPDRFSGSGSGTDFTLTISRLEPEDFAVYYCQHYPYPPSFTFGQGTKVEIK"
result_type = "kon"
unit_spec = "M⁻¹ s⁻¹"
assay_value = "3.03e+06"


Could you report kon for every entry in the following list?
1. L3.PY/L3.KY/P6E01 (antibody, V domains shown, IgG) VH: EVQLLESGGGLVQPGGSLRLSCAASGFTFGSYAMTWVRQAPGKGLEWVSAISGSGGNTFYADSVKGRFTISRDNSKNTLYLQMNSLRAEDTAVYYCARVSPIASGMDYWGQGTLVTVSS VL: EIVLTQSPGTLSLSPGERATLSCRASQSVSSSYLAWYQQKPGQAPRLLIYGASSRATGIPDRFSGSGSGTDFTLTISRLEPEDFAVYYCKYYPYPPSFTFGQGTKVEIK
2. L3.PY/L1.PH/P6E01 (antibody, V domains shown, IgG) VH: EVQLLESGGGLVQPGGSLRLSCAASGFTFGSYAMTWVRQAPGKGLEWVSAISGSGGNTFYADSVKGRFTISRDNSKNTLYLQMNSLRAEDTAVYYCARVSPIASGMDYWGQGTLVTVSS VL: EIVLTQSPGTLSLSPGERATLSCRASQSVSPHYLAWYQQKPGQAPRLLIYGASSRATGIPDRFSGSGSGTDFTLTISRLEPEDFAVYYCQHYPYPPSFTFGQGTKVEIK
3. L3.PY/L3.KY/H2.YQ (antibody, V domains shown, IgG) VH: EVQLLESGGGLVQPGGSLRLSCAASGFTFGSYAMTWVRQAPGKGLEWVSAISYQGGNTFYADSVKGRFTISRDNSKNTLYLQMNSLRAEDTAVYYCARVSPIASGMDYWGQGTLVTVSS VL: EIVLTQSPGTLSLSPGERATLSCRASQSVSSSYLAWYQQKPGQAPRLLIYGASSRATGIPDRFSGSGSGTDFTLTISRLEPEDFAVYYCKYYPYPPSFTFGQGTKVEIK
4. L3.PY/L1.AH/H2.YQ (antibody, V domains shown, IgG) VH: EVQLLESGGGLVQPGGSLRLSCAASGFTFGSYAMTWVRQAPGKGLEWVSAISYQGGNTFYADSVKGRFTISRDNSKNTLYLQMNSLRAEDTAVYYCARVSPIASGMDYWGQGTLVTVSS VL: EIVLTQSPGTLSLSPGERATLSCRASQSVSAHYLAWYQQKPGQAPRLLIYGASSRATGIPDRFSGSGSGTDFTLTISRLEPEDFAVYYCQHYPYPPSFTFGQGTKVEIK

1: 3.18e+06; 2: 2.81e+06; 3: 2.14e+06; 4: 2.42e+06
